measured_target: T1, Human CEACAM6-Domain 1-His (expressed in E. coli), wild-type (human)
T1 construct: entry includes the His tag; also called hDOM1
T1 chain: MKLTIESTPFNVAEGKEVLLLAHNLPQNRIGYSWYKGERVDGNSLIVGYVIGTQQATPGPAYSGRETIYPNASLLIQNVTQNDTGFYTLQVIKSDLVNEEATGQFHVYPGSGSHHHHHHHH
protocol_text: SPR, antibody captured, antigen as analyte
experimental_readout: pKd
Bear in mind: pKd is minus log10 of a mol/L concentration; give just that figure.

TPP-3308 (antibody, human IgG2, kappa, V domains shown, human IgG2 chimera; also called TPP-2971X1-hIgG2Kappa; hIgG2 chimera of TPP-2971) VH: QVTLKESGPGILQPSQTLSLTCSFSGFSLSTYGIGVGWIRQPSGKDLEWLAHIWWNDNKYYNTALKSRLTISKDTSNNQVFLKIASVDTADTATYYCARISLPYFDYWGQGTTLTVSS VL: DIVMTQSQKFMSTSVGDRVSITCKASQNVGTAVAWYQQKPGQSPKLLIYSASNRYTGVPDRFTGSGSGTDFTLTISNMQSEDLADYFCQQYSSYPLTFGAGTKLELKR	8.02

// TPP-3820 (antibody, human IgG2, kappa, V domains shown, humanized from TPP-3187, human IgG2; also called 3187HU1-hIgG2Kappa) VH: QVTLRESGPALVKPTQTLTLTCTFSGFSLTTYGIGVGWIRQPPGKGLEWLAHIWWNDNKYYSTSLKTRLTISKDTSKNQVVLTMTNMDPVDTATYYCARISLPYFDYWGQGTLVTVSS VL: DIQLTQSPSFLSASVGDRVTITCKASQNVGTAVAWYQQKPGKAPKLLIYSASNRYTGVPSRFSGSGSGTEFTLTISSLQPEDFATYYCQQYNNYPLTFGGGTKVEIKR : pKd value = 8.29

// TPP-2971 (antibody, mouse IgG1, V domains shown, murine hybridoma antibody, mouse IgG1; also called 792.15H12C9) VH: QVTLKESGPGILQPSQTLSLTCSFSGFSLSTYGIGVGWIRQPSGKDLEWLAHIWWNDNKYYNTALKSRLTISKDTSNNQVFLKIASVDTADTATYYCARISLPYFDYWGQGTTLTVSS VL: DIVMTQSQKFMSTSVGDRVSITCKASQNVGTAVAWYQQKPGQSPKLLIYSASNRYTGVPDRFTGSGSGTDFTLTISNMQSEDLADYFCQQYSSYPLTFGAGTKLELK : pKd value = 7.96
